Tested on: M19-MEL
Assay summary: NCI tumour cell line growth inhibition, 48 h
Active and inactive are the calls of the source. No stated cut-off is given here; in the data, active = GI50 up to about 1.1 µM and inactive = higher.
I would appreciate it if you answered using one of these outcomes: Y = active, N = inactive

Past entries and their recorded results:
[N-]=[N+]=NC1(c2ccccc2)C(=O)C(Cl)=C(c2ccccc2)N(c2ccccc2)C1=O (stereo not drawn); N
CCCCCCCCCCCCCCC(O)C1CCC(C(O)CCC(O)CCCCCC(O)CC2=CC(C)OC2=O)O1 (stereo not drawn); N
CN(C)CCNC(=O)c1cccc2c1nc(-c1ccccc1)c1ccccc12; N
COc1ccccc1NC(=O)C1=C(C)NC(C)=C(C(=O)Nc2ccccc2OC)C1c1ccc(C2C(C(=O)Nc3ccccc3OC)=C(C)NC(C)=C2C(=O)Nc2ccccc2OC)cc1; N
CCC(C)(C)NC1=C(NC(C)=O)C(=O)c2ccccc2C1=O; N
N#CC1Sc2ccccc2-n2cccc21 (stereo not drawn); N
N#CNC(=N)NC(=O)/C=C/C=C/c1ccc(Cl)cc1; N
CCC1=C(CC2NCCc3ccccc32)CC2c3cc(OC)c(OC)cc3CCN2C1 (stereo not drawn); Y

# input for lookup
### Prompt Any idea what this test logged for O=C1C=CC(=O)c2c1ccc1c3ccccc3n(-c3ccccc3)c21 ?
### Response N

###

Below is a list of entries, each paired with its recorded GI50 value.
Test system: U-251
Assay summary: NCI tumour cell line growth inhibition, 48 h
The source made the active and inactive calls. No stated cut-off is given here; in the data, active = GI50 up to about 1.1 µM and inactive = higher.

COc1cccc(C2c3cc4c(cc3OC(C)(N3CCCC3)C2C)OCO4)c1 (centres undefined); 7.59 µM (inactive)
Cc1nc(=O)[nH]c2[nH][nH]c(=O)c12; > 100 µM (inactive)
CC(=O)OC1(C#N)CC2OC1C1N=NN(C(=O)OC(C)(C)C)C21 (centres undefined); > 100 µM (inactive)

### Prompt # lookup: U-251 GI50, key = CCCCCC(=O)N[C@@H](c1ccco1)[C@@H](O)C(=O)O[C@H]1C[C@@]2(O)[C@@H](OC(=O)c3ccccc3)[C@@H]3[C@]4(OC(C)=O)CO[C@@H]4C[C@H](O)[C@@]3(C)C(=O)[C@H](OC(C)=O)C(=C1C)C2(C)C
### Response < 0.0025 µM (active)

### Prompt # lookup: U-251 GI50, key = C=CCN1C(=O)C[C@H](Cc2ccccc2)NC(=O)C[C@H](Cc2ccccc2)N(CC=C)C(=O)C[C@H](Cc2ccccc2)NC(=O)C[C@@H]1Cc1ccccc1
### Response 12.9 µM (inactive)

### Prompt # lookup: U-251 GI50, key = c1ccc2c(c1)cc(C1NCCc3nc[nH]c31)c1ccccc12 (centres undefined)
### Response 39.1 µM (inactive)

###

System: ACHN
Assay summary: NCI tumour cell line growth inhibition, 48 h
Activity calls are given as the source filed them. No stated cut-off is given here; in the data, active = GI50 up to about 1.1 µM and inactive = higher.
I would appreciate it if you answered using one of these outcomes: Y (active), N (inactive)

COc1ccc(-n2c(N)c(C#N)c(C#N)c2-c2cccc([N+](=O)[O-])c2)cc1; N
N#CC(/C(=N/NC(=O)C(=O)NN)C(=O)Nc1nc([N+](=O)[O-])cs1)c1ccc(Cl)cc1 (configuration not stated); N

### Prompt Any idea what this test logged for Nc1nc(N)c2ncn(-c3ccc(Br)cc3)c2n1 ?
### Response N

### Prompt Any idea what this test logged for O=c1sc2c(s1)SSSSS2 ?
### Response N

### Prompt Any idea what this test logged for CC(=O)O[C@H]1CCN2C(=O)C=CC(OCc3ccccc3)C12 (some centres not stated) ?
### Response N

###

Below is a list of entries, each paired with its recorded GI50 value.
System: SK-OV-3
Assay summary: NCI tumour cell line growth inhibition, 48 h
Calls of active or inactive are those of the source. Cut-off read from the data, not from the text of the source: active = GI50 up to about 1.1 µM and inactive = higher.

### Prompt Determine its reported GI50: COc1ccc2c(c1)CCN1CCCc3ccccc3C21 (centres undefined)
### Response 46.3 µM (inactive)

### Prompt Determine its reported GI50: COC1CC(OC2C(C)OC(OC3C(C)OC(OC4C(C)OC(O[C@H]5CC[C@@]6(C)C(=CC[C@]7(O)[C@@H]6C[C@@H](O)[C@@]6(C)[C@]7(O)CC[C@@]6(O)C(C)=O)C5)CC4OC)CC3OC)CC2OC)OC(C)C1O (some centres undefined)
### Response > 12.5 µM (inactive)

### Prompt Determine its reported GI50: CCOC(=O)C(C)OC(=O)c1ccc(C)cc1 (centres undefined)
### Response > 100 µM (inactive)

### Prompt Determine its reported GI50: CC(C)[Si](OC1=C(C(=O)N(C)c2ccccc2Cl)CCC1)(C(C)C)C(C)C
### Response 16.5 µM (inactive)

###

Test system: SF-539
Assay summary: NCI tumour cell line growth inhibition, 48 h
The source made the active and inactive calls. No stated cut-off is given here; in the data, active = GI50 up to about 1.1 µM and inactive = higher.
Measured quantity: GI50

Example cases with answers are listed next.
Cc1ccc(NC(=O)CC(=O)n2nc(-c3ccccc3)c(/N=N/c3ccccc3C(=O)O)c2-c2ccccc2)cc1; > 100 µM (inactive)
Cc1nc(=O)[nH]c2[nH][nH]c(=O)c12; > 100 µM (inactive)
CN(C)CCN(C)C(=O)c1cccc2cccc(C(=O)O)c12; > 100 µM (inactive)
C/C=N\n1c(C)c(C#N)c(C#N)c1N; > 100 µM (inactive)

### Prompt Determine its reported GI50: CCc1cc(Cc2cc(CC)c(NC(=O)C3=CC(=O)CC(c4ccc(OC)cc4)O3)c(CC)c2Cl)c(Cl)c(CC)c1NC(=O)C1=CC(=O)CC(c2ccc(OC)cc2)O1 (stereo unspecified)
### Response 20.2 µM (inactive)

### Prompt Determine its reported GI50: Nc1ccc(-c2nc3ccc(F)cc3s2)cc1
### Response 36.4 µM (inactive)

###

Tested on: LOX IMVI
Assay summary: NCI tumour cell line growth inhibition, 48 h
The source made the active and inactive calls. No stated cut-off is given here; in the data, active = GI50 up to about 1.1 µM and inactive = higher.
Below is a list of entries, each paired with its recorded GI50 value.

Example cases with answers are listed next.
CCOc1ccc(NC(=O)C(=O)Nn2c(N)nnc2N)cc1; > 100 µM (inactive)
Cc1ccc([N+](=O)[O-])cc1S(=O)(=O)Nc1ccc(C2=NN(S(=O)(=O)c3cc([N+](=O)[O-])ccc3C)C(c3ccccc3)C2)cc1 (configuration not stated); 34.3 µM (inactive)
Cc1cc(-c2nc3cc(F)ccc3s2)ccc1N; > 56.9 µM (inactive)
CCOC(=O)Cc1ccc(Nc2nc3ccccc3nc2C(=O)OCC)cc1; > 100 µM (inactive)
CC(=O)Nc1ccccc1[S+]([O-])c1ccccc1 (configuration not stated); > 100 µM (inactive)

### Prompt Determine its reported GI50: CC(=O)Oc1c(OC(C)C)c(C)c(O[Si](C(C)C)(C(C)C)C(C)C)c2[nH]c3ccccc3c12
### Response > 100 µM (inactive)

### Prompt Determine its reported GI50: O=c1c(Br)c(-c2ccccc2)[s+]([O-])c2ccccc12 (configuration not stated)
### Response 11.8 µM (inactive)

### Prompt Determine its reported GI50: CC(C)[Si](CC1=CCCCC12C(=O)N(COCC[Si](C)(C)C)c1ccccc12)(C(C)C)C(C)C (configuration not stated)
### Response 29.2 µM (inactive)

### Prompt Determine its reported GI50: CCCCC1(O)CC2CC1C(C)C2(C)C (configuration not stated)
### Response > 100 µM (inactive)

### Prompt Determine its reported GI50: CCOC(=O)C(=O)Nc1nc2c(OCC)cccc2s1
### Response > 100 µM (inactive)

### Prompt Determine its reported GI50: CC(=O)OCC1OC(n2cnc3c(I)nc(I)nc32)C(OC(C)=O)C1OC(C)=O (configuration not stated)
### Response 14 µM (inactive)

### Prompt Determine its reported GI50: Cc1nc2n(c1/C=C1/C(=O)Nc3ccccc31)CCS2
### Response 72.4 µM (inactive)

### Prompt Determine its reported GI50: Cn1c(=O)c2c(nc(N)n2C2OC(CO)C(O)C2O)n(C)c1=O (configuration not stated)
### Response > 100 µM (inactive)

###

Test system: SK-MEL-2
Assay summary: NCI tumour cell line growth inhibition, 48 h
The source made the active and inactive calls. Rule as the data show it: active = GI50 up to about 1.1 µM and inactive = higher.
I would appreciate it if you answered using one of these outcomes: 1 for active, 0 for inactive

Past entries and their recorded results:
O=C1CSC2(CC(/C=C/C=C/c3ccccc3)=NN2c2cccc(S(=O)(=O)O)c2)N1c1nc2ccccc2s1 (stereo unspecified); 0
C=C(C(=O)O)C1CCC(CC/C=C(\C)CC/C=C(\C)CCC=C(C)C)CO1 (stereo unspecified); 0
CC1=CC(C)(C)N=C2SC(c3ccc(Cl)cc3)=NN12; 0

### Prompt Any idea what this test logged for NC(=O)c1cccc(C2OC(COP(=O)(O)O)C(O)C2O)c1 (stereo unspecified) ?
### Response 0

### Prompt Any idea what this test logged for Cc1ccc(S(=O)(=O)n2cc(/C=C/C#N)c(/C=C/C#N)c2)cc1 ?
### Response 0

###

Test system: PC-3
Assay summary: NCI tumour cell line growth inhibition, 48 h
The source made the active and inactive calls. No stated cut-off is given here; in the data, active = GI50 up to about 1.1 µM and inactive = higher.
Measured quantity: GI50

### Prompt Determine its reported GI50: COc1c(N2CCCCC2)c2c(=O)c3ccccc3oc2c2cc(C)oc12
### Response 12.7 µM (inactive)

### Prompt Determine its reported GI50: COc1cc(C2c3cc4c(cc3[C@@H](Nc3ccccc3)C3CO[C@@H](OC)[C@H]23)OCO4)cc(OC)c1O (some centres not stated)
### Response 8.81 µM (inactive)

### Prompt Determine its reported GI50: COc1ccc(C(=O)O[C@H]2CC[C@@]3(C)[C@@H]4CC[C@H]5[C@]6(O)C[C@H](O)[C@@]7(O)[C@@H](CN8C[C@@H](C)CC[C@H]8[C@@]7(C)O)[C@]6(O)C[C@@]53OC24O)cc1OC [VERATRIDINE]
### Response > 100 µM (inactive)

### Prompt Determine its reported GI50: COc1ccc(-n2c(N)c(C#N)c(C#N)c2-c2cccc([N+](=O)[O-])c2)cc1
### Response 33.5 µM (inactive)

### Prompt Determine its reported GI50: O=C(NNC(=S)Nc1ccccc1)c1ccccc1Nc1ccccc1C(=O)NNC(=S)Nc1ccccc1
### Response 23 µM (inactive)

### Prompt Determine its reported GI50: C=C([C@@]1(O)C[C@H]2[C@H](CCC2(OC)OC)[C@@H]2c3ccccc3O[C@@H]21)[Si](C)(C)C
### Response > 100 µM (inactive)

### Prompt Determine its reported GI50: CC(C)=CCC/C(C)=C/CC/C(C)=C/CC/C(C)=C/C=C/C=C(\C)CC/C=C(\C)CC/C=C(\C)CCC=C(C)C
### Response > 81.5 µM (inactive)
